# Tested on: U2OS
# test.description: Incucyte cell viability with U2OS; also: filed as whole numbers so only -1 and 0 and 1 occur
# Format: toxicity, cell-based
# test.conditions: human, 0 h, 10 µM, compound concentration 10 uM, replicate number 2, timepoint 0 hours
value.type: Growth Rate

[[record]]
compound_string = "O=C1O[C@]2(CC[C@H](C(=O)Nc3ccn(-c4ccccc4F)n3)CC2)c2cnccc21"
data_value = 0

[[record]]
compound_string = "CN1CCN(C(=O)C(C)(C)c2ccc(C(=O)Nc3cn4cc(-c5ccncc5)ccc4n3)cc2)CC1"
data_value = 0

[[record]]
compound_string = "Cn1nc(C(F)(F)F)cc1-c1cnc(N2CCc3cc(S(=O)(=O)Nc4c(F)cc(Cl)cc4F)cc(N4CCCC4=O)c32)nc1"
data_value = 1

[[record]]
compound_string = "COC(=N)c1nc2ccc3ncnc(Nc4ccc(OC)cc4F)c3c2s1"
data_value = 1

[[record]]
compound_string = "Cn1nc(C(=O)NCc2ccc(C(=O)O)cc2)cc1-c1ccc2[nH]ccc2c1"
data_value = 0

[[record]]
compound_string = "Cc1nc(NC(=O)N2CCC[C@H]2C(N)=O)sc1-c1ccnc(C(C)(C)C(F)(F)F)c1"
data_value = 0

[[record]]
compound_string = "Cn1cc(CCn2cnc(-c3cnn(C)c3)c2-c2ccc(C#N)cc2)cn1"
data_value = 0


Data credit: ChEMBL document CHEMBL4689842
